- Tested on: tumor cells from medulloblastoma developed from mice with deficiency in Patched1 gene
- Assay summary: MB assay: survival of medulloblastoma tumor cells by MTT after 48 hours
- Format: cell-based
- Experimental conditions: Mus musculus, tumor cells treated 48 hours, cell survival by MTT
Quick reference: IC50 of the listed items.

The cases that follow already have their IC50 on record.
>  <Compound>
COc1ccc2c(c1)nc(C(C)c1ccc(Br)cc1)n2Cc1ccccc1Cl (centres unmarked) [Compound 39]

>  <IC50>
5 to 10 µM

$$$$
>  <Compound>
CCc1noc(C(C)(C)Cc2c(SC(C)(C)C)c3cc(OC)ccc3n2Cc2ccc(Cl)cc2)n1 [Compound 33]

>  <IC50>
> 20 µM

$$$$
>  <Compound>
CC(C)(C)CCc1c(CC(C)(C)CO)n(Cc2ccc(Cl)cc2)c2ccc(O)cc12 [Compound 20]

>  <IC50>
1 to 5 µM

$$$$
>  <Compound>
COC(=O)Cc1c(SC(C)(C)C)c2cc(C(C)C)ccc2n1Cc1ccc(Cl)cc1 [Compound 14]

>  <IC50>
> 20 µM

$$$$
>  <Compound>
CC(C)c1ccc2c(c1)c(SC(C)(C)C)c(CCC(=O)O)n2Cc1ccc(Cl)cc1 [Compound 11]

>  <IC50>
5 to 10 µM

$$$$

Quick check: IC50 of COC(=O)C(C)(C)Cc1c(C(=O)CC(C)(C)C)c2cc(O)ccc2n1Cc1ccc(Cl)cc1 [Compound 24] ?
1 to 5 µM

Quick check: IC50 of CC(C)C(=O)c1c(CC(C)(C)C(=O)O)n(Cc2ccc(Cl)cc2)c2ccc(C(C)C)cc12 [Compound 9] ?
10 to 20 µM

Quick check: IC50 of CC(C)Cc1ccc(C(C)c2nc3cc(Br)ccc3n2Cc2ccccc2Cl)cc1 (centres unmarked) [Compound 52] ?
> 20 µM

====

Quick reference: IC50 of the listed items.
- Test system: tumor cells from medulloblastoma developed from mice with deficiency in Patched1 gene
- Assay summary: MB assay: survival of medulloblastoma tumor cells by MTT after 48 hours
- Assay type: cell-based
- Experimental conditions: Mus musculus, tumor cells treated 48 hours, cell survival by MTT

Quick check: IC50 of COc1ccc2c(c1)c(-c1ccc(CC(C)C)cc1)cn2Cc1ccccc1Cl ?
> 20 µM

Quick check: IC50 of Cc1coc(C(C)(C)Cc2c(SC(C)(C)C)c3cc(O)ccc3n2Cc2ccc(Cl)cc2)n1 ?
1 to 5 µM

Quick check: IC50 of Cc1c(-c2ccc(CC(C)C)cc2)c2cc(O)ccc2n1Cc1ccccc1Cl ?
1 to 5 µM

Quick check: IC50 of CC(C)Cc1ccc(-c2nc3cc(O)ccc3n2Cc2ccccc2Cl)cc1 ?
5 to 10 µM

====

Quick reference: pIC50 of the listed items.
- Tested on: tumor cells from medulloblastoma developed from mice with deficiency in Patched1 gene
- Assay summary: MB assay: survival of medulloblastoma tumor cells by MTT after 48 hours
- Assay type: cell-based
- Experimental conditions: Mus musculus, tumor cells treated 48 hours, cell survival by MTT
- Procedure: To test the effect of the novel compounds on the proliferation of tumor cell, we isolated tumor cells from medulloblastoma developed from mice with deficiency in Patched1 gene. Tumor cells were plated in vitro as previously described, and treated with various concentration of compounds for 48 hours. Tumor cells cultured were then harvested to measure cell survival based on MTT assay. The IC50 value for each compound was calculated using Prism the statistical software. […]
pIC50: −log10 of the molar value.

>  <Compound>
COc1cnc2c(c1)c(SC(C)(C)C)c(CC(C)(C)C(=O)O)n2Cc1ccc(Cl)cc1 [Compound 17]

>  <pIC50>
< 4.70

$$$$
>  <Compound>
CC(C)(C)CC(=O)c1c(CC(C)(C)CO)n(Cc2ccc(Cl)cc2)c2ccc(O)cc12 [Compound 25]

>  <pIC50>
< 4.70

$$$$
>  <Compound>
COc1ccc2c(c1)nc(C(C)c1ccc(CCO)cc1)n2Cc1ccccc1Cl (stereo not shown) [Compound 47]

>  <pIC50>
< 4.70

$$$$

Note: attention shifts to another entry.
Quick check: pIC50 of CC(C)c1ccc2c(c1)c(SC(C)(C)C)c(CC(=O)O)n2Cc1ccc(Cl)cc1 [Compound 13] ?
4.70 to 5.00

Source of measurements: patent US11718614B2
